Where do these numbers come from? They come from patent US20240076389A1.

Target: T1, recombinant human AXL extracellular domain, C-terminally His8-tagged (rhAXL-ECD) (human, UniProt P30530 26-451)
T1 construct: Made in CHO cells; also called (rh)AXL-ECD His8; human AXL ECD
T1 sequence: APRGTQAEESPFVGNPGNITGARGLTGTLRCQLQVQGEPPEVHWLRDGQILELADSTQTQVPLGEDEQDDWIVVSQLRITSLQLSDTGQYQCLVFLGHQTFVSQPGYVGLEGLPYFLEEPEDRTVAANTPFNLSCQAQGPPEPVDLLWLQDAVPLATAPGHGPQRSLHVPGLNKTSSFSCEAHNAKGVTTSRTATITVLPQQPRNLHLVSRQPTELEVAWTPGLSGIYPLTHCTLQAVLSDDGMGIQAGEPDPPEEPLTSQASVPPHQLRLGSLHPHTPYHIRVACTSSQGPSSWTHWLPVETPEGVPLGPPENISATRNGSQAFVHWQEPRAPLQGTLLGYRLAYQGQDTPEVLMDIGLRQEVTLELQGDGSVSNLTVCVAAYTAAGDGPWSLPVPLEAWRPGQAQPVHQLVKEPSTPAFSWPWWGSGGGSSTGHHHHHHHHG
Test: SPR, VHH-Fc captured, AXL ECD flowed, single-concentration kinetics (estimate)
measurement_kind: kon (M⁻¹ s⁻¹)
Report the value in M⁻¹ s⁻¹ with no unit label.

Quick one: kon for NRC-sdAb008-Fc (VHH-human IgG1 Fc fusion) (Fc fusion, VHH fused N-terminally to human IgG1 Fc; also called NRC-sdAb008-hIgG1; not shown: human IgG1 Fc) QVKLEESGGGLVQAGGSLRLSCAASGSSGMINTMGWYRQAPGKQRELVARRSTGGTTNYADSVKGRFTISRDDANNTVYLQMNSLKPEDTAVYYCAIIWRTSDLTGRFNTWGQGTQVTVSS ?
5.3e+06

Please do the same for NRC-sdAb001-Fc (VHH-human IgG1 Fc fusion) (Fc fusion, VHH fused N-terminally to human IgG1 Fc, made in HEK293 cells; also called NRC-sdAb0001-Fc; NRC-sdAb001-hIgG1; not shown: human IgG1 Fc) QVKLEESGGGLVQAGGSLRLSCTASASISSFDIMGWYRQAPGKQRELVAAITTLDIANYRDSVKGRFTISRDNAKNTVYLQMDSLKPEDTARYHCAAFQSDQNYWGQGTQVTVSS as well.
1.3e+06

Please do the same for NRC-sdAb005-Fc (VHH-human IgG1 Fc fusion) (Fc fusion, VHH fused N-terminally to human IgG1 Fc; also called NRC-sdAb005-hIgG1; not shown: human IgG1 Fc) QVKLEESGGGLAQAGGSLRLSCAASGSISSINTIGWFRQAPGKQRELVAASDSGANRNYADSVKGRFTISRDNAKNTVYLQMNNLKPEDTAIYYCRAWGTGTISTMYWGQGTQVTVSS as well.
120000

Please do the same for NRC-sdAb006-Fc (VHH-human IgG1 Fc fusion) (Fc fusion, VHH fused N-terminally to human IgG1 Fc; also called NRC-sdAb006-hIgG1; not shown: human IgG1 Fc) QVKLEESGGGLVQAGASLRLSCVASESIFGFNTMGWYRQAPGNERELVASISNSKRTMYADSVKGRFTISRDNAKNTVNLQMNNLKPEDTAVYYCRAWGIITSATVYWGQGTQVTVSS as well.
89000
